# Method notes: NCI Yeast Anticancer Drug Screen. Data for the rad50 strain (AID 155);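 also: 0% = growth of vehicle-only cultures of the same strain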
# Measurement parameters: S. cerevisiae rad50 strain growth inhibition; at 50.0 µM; hits give high values
Compounds without any hit were thinned out: in the full panel of roughly 79,000, 15% have a hit. Active and inactive are the calls of the source. Rule as the data show it: active = growth inhibition above about 70%; inactive = the rest.
I'd appreciate it if you could supply growth inhibition values for the items below.

Input line: Field request: growth inhibition | item: O=C(/C=C/c1ccccc1)NOC(=O)/C=C/c1ccccc1
Output line: 97.5% (active)

Input line: Then what about the compound Oc1ccc(Cc2cccc(Br)c2)c(O)c1 ?
Output line: 99.3% (active)

Input line: Then what about the compound CC1(c2ccc(Cl)cc2)OC(=O)c2c1ccc1ccccc21 (centres undefined) ?
Output line: 97.7% (active)

Input line: Then what about the compound COc1cc(OC)c(C2CC(C)(OC)Oc3cc4c(cc32)OCO4)c(OC)c1 (centres undefined) ?
Output line: 4.35% (inactive)

Input line: Then what about the compound O=C(O)CSCc1cc2c3ccccc3sc2c2ccccc12 ?
Output line: 97.9% (active)

Input line: Then what about the compound Oc1c(Cl)cc(C(c2cc(Cl)c(O)c(Cl)c2)C(Cl)(Cl)Cl)cc1Cl ?
Output line: 98.8% (active)

Input line: Then what about the compound Cc1ccc(CC2(C(=O)O)Cc3ccc(C)cc3C2)cc1 (centres undefined) ?
Output line: 78.3% (active)

Input line: Then what about the compound CCOC(=O)C(=NNc1ccccc1)C(=O)OCC ?
Output line: 42.4% (inactive)

Input line: Then what about the compound O=Cc1cc(-c2ccccc2)n(-c2ccccc2)c1-c1ccccc1 ?
Output line: 64.3% (inactive)

Input line: Then what about the compound CCN(CC)CCOc1ccc(C(=C2CCCCC2)c2ccc(OCCN(CC)CC)cc2)cc1 ?
Output line: 84.8% (active)

Input line: Then what about the compound CC1CCCN(c2cc(N(C)C)c([N+](=O)[O-])cc2F)C1 (centres undefined) ?
Output line: 32.2% (inactive)

Input line: Then what about the compound NC(=O)N/N=C/c1ccc(Cl)s1 ?
Output line: 94.4% (active)

Input line: Then what about the compound c1cc2c3c(c1)[I+]c1cccc(c1-3)[I+]2 ?
Output line: 69.8% (inactive)

Input line: Then what about the compound Nc1ccc(Cl)c2cccnc12 ?
Output line: 97.5% (active)

Input line: Then what about the compound C/C=C(/CCC1NCCC2c3ccccc3NC12)[Si](C)(C)C (centres undefined) ?
Output line: 10.2% (inactive)

Input line: Then what about the compound N#Cc1ccc(C(F)(F)F)cc1[N+](=O)[O-] ?
Output line: 99% (active)

Input line: Then what about the compound CN(C(=O)c1cccs1)C(=S)N1CCN(c2ccccc2)CC1 ?
Output line: 79.8% (active)

Input line: Then what about the compound COc1cc(-c2nn3c(=O)n(-c4ccc(Cl)cc4)c(=O)nc3s2)cc(OC)c1OC ?
Output line: 30.8% (inactive)

Input line: Then what about the compound Cc1cc(C(O)(C(F)(F)F)C(F)(F)F)cc(C(O)(C(F)(F)F)C(F)(F)F)c1 ?
Output line: 97.2% (active)

Input line: Then what about the compound O=c1c2ccccc2[nH]c2c1[nH]c1ccccc12 ?
Output line: 37% (inactive)

Input line: Then what about the compound N#C/C(=C1/C(=O)c2ccccc2-c2ccccc21)c1ccccc1 ?
Output line: 97.2% (active)

Input line: Then what about the compound O/N=C(/CN1CCN(c2ccccc2)CC1)c1ccccc1 ?
Output line: 45.4% (inactive)

Input line: Then what about the compound Oc1ccc(/C=N/NC(=S)NC2CC3CC2C2C=CCC32)c(O)c1 (centres undefined) ?
Output line: 87.8% (active)

Input line: Then what about the compound O=P1(Cc2ccccc2)c2ccccc2-c2ccccc21 ?
Output line: 85.6% (active)

All figures here come from PubChem BioAssay (NCI).
